- tested-on: UniProt:Q9NZC2
- Sequence (Q9NZC2 19-230): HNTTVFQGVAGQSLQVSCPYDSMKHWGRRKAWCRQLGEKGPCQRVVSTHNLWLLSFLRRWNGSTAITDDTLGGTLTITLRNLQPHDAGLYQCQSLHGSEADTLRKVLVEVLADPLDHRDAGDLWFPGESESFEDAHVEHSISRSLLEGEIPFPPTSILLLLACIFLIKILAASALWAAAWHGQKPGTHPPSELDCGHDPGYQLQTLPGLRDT
- Sequence (O43914 22-113 partner): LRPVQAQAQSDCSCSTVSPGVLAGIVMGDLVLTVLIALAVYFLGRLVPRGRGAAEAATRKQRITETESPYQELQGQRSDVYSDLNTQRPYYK
- method: Phospho-Syk AlphaScreen/AlphaLISA assay in TREM2 and DAP12 overexpressing HEK293 cells (Example A1)
- Format: cell-based
- Parameters: expressed in transfected cells
- assay-context: HEK293 cells
measurement-kind: Emax

INSERT INTO results (compound, observed_value) VALUES
  ('Cc1nc2cc(N3CCO[C@@H](c4cnn(C)c4)C3)nc(-c3ccc(Cl)cn3)c2c(=O)n1C [Example 212]', '++++ (Emax>300)'),
  ('Cc1nc2cc([C@H]3CCO[C@@H](c4cccnc4)C3)nc(-c3ccc(Cl)cc3F)c2c(=O)n1C (single isomer, unassigned) [Example 177]', '++++ (Emax>300)'),
  ('Cc1nc2cc(N3CCO[C@H](c4cccnc4)C3)nc(-c3ccc(Cl)cc3F)c2c(=O)n1C [Example 210]', '++++ (Emax>300)'),
  ('Cc1nc2cc(N3C[C@@H](C)O[C@H](c4cnn(C)c4)C3)nc(-c3ccc(Cl)cc3F)c2c(=O)n1C (single isomer, unassigned) [Example 27]', '++++ (Emax>300)'),
  ('Cc1nc2cc(N3CCO[C@H]([C@H]4CCO4)C3)nc(-c3ccc(Cl)cc3F)c2c(=O)n1C (single isomer, unassigned) [Example 41]', '+++ (Emax>200 and ≤300)'),
  ('COc1cc([C@@H]2CN(c3cc4nc(C)n(C)c(=O)c4c(-c4ccc(Cl)cc4F)n3)CCO2)ccn1 [Example 243]', '++++ (Emax>300)'),
  ('Cc1nc2cc(N3CCCC(C4CNC(=O)C4)C3)nc(-c3ccc(Cl)cc3F)c2c(=O)n1C (stereo not shown) [Example 106]', '+++ (Emax>200 and ≤300)'),
  ('CCCn1c(C)nc2cc(N3CCOC(CF)C3)nc(-c3ccc(Cl)cc3F)c2c1=O (stereo not shown) [Example 185]', '+++ (Emax>200 and ≤300)'),
  ('Cc1nc2cc(N3CCO[C@H](c4ccccn4)C3)nc(-c3ccc(Cl)cc3F)c2c(=O)n1C [Example 209]', '+++ (Emax>200 and ≤300)'),
  ('Cc1nc2cc(N3CCC(F)(F)[C@H](N(C)C)C3)nc(-c3ccc(Cl)cc3F)c2c(=O)n1C [Example 250]', '++++ (Emax>300)'),
  ('Cc1nc2cc(N3CCC(C(F)(F)F)C3)nc(-c3ccc(Cl)cc3F)c2c(=O)n1C (stereo not shown) [Example 119]', '+++ (Emax>200 and ≤300)'),
  ('Cc1nc2cc(N3CCO[C@@H](c4cnn(C5COC5)c4)C3)nc(-c3ccc(Cl)cc3F)c2c(=O)n1C [Example 125]', '++++ (Emax>300)'),
  ('Cc1nc2cc(N3CCO[C@@](C)(c4cnn(C)c4)C3)nc(-c3ccc(Cl)cc3F)c2c(=O)n1C [Example 224]', '+++ (Emax>200 and ≤300)'),
  ('Cc1nc2cc(N3CCO[C@H](c4ccnc(C(F)(F)F)c4)C3)nc(-c3ccc(Cl)cc3F)c2c(=O)n1C [Example 265]', '+++ (Emax>200 and ≤300)'),
  ('COc1ccc([C@H]2CN(c3cc4nc(C)n(C)c(=O)c4c(-c4ccc(Cl)cc4F)n3)CCO2)cc1 (single isomer, unassigned) [Example 78]', '++++ (Emax>300)'),
  ('Cc1nc2cc(N3CCO[C@@H](c4ccc(Cl)cc4)C3)nc(-c3ccc(Cl)cc3F)c2c(=O)n1C (single isomer, unassigned) [Example 87]', '++++ (Emax>300)'),
  ('Cc1nc2cc(N3CCO[C@@H]([C@H]4CCO4)C3)nc(-c3ccc(Cl)cc3F)c2c(=O)n1C (single isomer, unassigned) [Example 38]', '+++ (Emax>200 and ≤300)'),
  ('Cc1nc2cc(N3CC[C@H](C(F)F)C3)nc(-c3ccc(Cl)cc3F)c2c(=O)n1C [Example 259]', '++ (Emax>100 and ≤200)'),
  ('Cc1nc2cc(N3Cc4cccnc4C3)nc(-c3ccc(Cl)cc3F)c2c(=O)n1C [Example 247]', '++ (Emax>100 and ≤200)'),
  ('CCn1c(C)nc2cc(N3CCO[C@H](c4noc(C)n4)C3)nc(-c3ccc(Cl)cc3F)c2c1=O [Example 147]', '++++ (Emax>300)'),
  ('Cc1nc2cc(N3CCO[C@@H](c4cnn(C(C)F)c4)C3)nc(-c3ccc(Cl)cc3F)c2c(=O)n1C (stereo partly shown) [Example 129]', '+++ (Emax>200 and ≤300)'),
  ('Cc1nc2cc(N3CCO[C@H](c4cccc(C(F)(F)F)c4)C3)nc(-c3ccc(Cl)cc3F)c2c(=O)n1C (single isomer, unassigned) [Example 92]', '++++ (Emax>300)'),
  ('Cc1nc2cc(N3CC[C@H](c4ccccc4)C3)nc(-c3ccc(Cl)cc3F)c2c(=O)n1C [Example 206]', '++ (Emax>100 and ≤200)'),
  ('Cc1nc2cc(N3CCC(F)(F)[C@H](N4CCC4)C3)nc(-c3ccc(Cl)cc3F)c2c(=O)n1C [Example 249]', '++++ (Emax>300)'),
  ('Cc1nc2cc(N3CCO[C@@H](c4cnn(C)c4)C3)nc(-c3ccc(C(F)(F)F)cc3F)c2c(=O)n1C [Example 13]', '++++ (Emax>300)'),
  ('Cc1nc2cc(N3CCO[C@@H](c4cnn(C)c4)C3)nc(-c3ccc(Cl)cc3F)c2c(=O)n1C [Example 1]', '+++ (Emax>200 and ≤300)'),
  ('Cc1nc2cc(N3CCC(c4cccnc4)C3)nc(-c3ccc(Cl)cc3F)c2c(=O)n1C (stereo not shown) [Example 121]', '++++ (Emax>300)');
